System: bone marrow K562
assay.name: MTT antiproliferative assay, K562
Type: cell-based
measurement.setup: Homo sapiens
reported.property: IC50 (nM)
Give bare numbers, in nM.

Problem: I would be grateful if you could share the reported IC50 for CCN(C(=O)c1cc(C(C)C)c(O)cc1O)c1cccnc1 [Compound 18b] .
Solution: 130

---

I'd appreciate it if you could supply half-life values for the items below.
assay.name: Pharmacokinetic profiles in rat
measurement.setup: in vivo, iv, 2 mg/kg, T1/2, rat, IV (2 mg/kg)
Answers are plain numbers, in h.

{"compound": "CCN(C(=O)c1cc(C(C)C)c(O)cc1O)c1ccncc1 [Compound 19b]", "half-life / h": 8.1}

Let's switch to this compound now.
Problem: I would be grateful if you could share the reported half-life for CCN(C(=O)c1cc(C(C)C)c(O)cc1O)c1cccnc1 [Compound 18b] .
Solution: 4

// data source = patent US11479528B2
